Biological target: Vascular endothelial growth factor receptor 2 (Homo sapiens, UniProt P35968)
Sequence (P35968 whole entry): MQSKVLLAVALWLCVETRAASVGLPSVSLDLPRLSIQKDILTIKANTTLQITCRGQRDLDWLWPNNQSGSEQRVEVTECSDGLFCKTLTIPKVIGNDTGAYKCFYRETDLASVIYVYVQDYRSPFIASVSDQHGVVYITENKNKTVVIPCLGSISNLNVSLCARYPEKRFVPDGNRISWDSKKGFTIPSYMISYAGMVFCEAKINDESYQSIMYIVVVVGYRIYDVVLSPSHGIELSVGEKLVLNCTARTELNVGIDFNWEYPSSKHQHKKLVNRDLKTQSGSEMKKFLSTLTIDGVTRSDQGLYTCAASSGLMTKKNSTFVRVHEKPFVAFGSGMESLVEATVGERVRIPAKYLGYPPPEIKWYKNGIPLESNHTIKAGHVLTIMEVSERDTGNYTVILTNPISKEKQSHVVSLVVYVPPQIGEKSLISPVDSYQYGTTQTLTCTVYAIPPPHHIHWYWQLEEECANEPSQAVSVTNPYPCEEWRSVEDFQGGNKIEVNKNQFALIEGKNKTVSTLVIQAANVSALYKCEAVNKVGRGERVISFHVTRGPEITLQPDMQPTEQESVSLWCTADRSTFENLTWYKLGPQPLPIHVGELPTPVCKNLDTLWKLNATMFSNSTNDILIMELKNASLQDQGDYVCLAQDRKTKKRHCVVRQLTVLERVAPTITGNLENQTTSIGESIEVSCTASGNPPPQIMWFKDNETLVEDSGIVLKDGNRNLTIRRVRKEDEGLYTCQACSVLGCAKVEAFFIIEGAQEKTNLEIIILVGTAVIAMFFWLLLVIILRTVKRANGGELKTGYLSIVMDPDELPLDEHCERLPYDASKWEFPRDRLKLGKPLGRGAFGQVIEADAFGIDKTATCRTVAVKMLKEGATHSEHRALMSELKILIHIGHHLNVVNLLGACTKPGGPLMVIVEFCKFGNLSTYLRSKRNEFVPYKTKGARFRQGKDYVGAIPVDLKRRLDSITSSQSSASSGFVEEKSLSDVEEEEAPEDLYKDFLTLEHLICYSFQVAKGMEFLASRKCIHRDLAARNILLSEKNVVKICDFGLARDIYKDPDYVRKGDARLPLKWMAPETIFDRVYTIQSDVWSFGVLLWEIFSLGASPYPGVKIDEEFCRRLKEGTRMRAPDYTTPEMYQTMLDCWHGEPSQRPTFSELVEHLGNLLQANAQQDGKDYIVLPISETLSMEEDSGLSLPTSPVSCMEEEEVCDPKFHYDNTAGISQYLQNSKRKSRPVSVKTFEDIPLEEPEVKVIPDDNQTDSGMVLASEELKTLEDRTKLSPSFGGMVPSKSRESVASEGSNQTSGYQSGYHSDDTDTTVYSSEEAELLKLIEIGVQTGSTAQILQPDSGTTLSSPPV
Test: Inhibition of human VEGFR-2 using biotinylated synthetic peptide biotin-aminohexyl-EEEEYFELVAKKKK-NH2 as substrate pre-incubated for 30 mins and measured after 30 mins by FRET assay
Value Type: pIC50
The scale used: pIC50 is minus the common logarithm of the concentration in molar units.

Incoming: State the recorded pIC50 for this entry: COc1cc2nc(-c3ccccc3)n(-c3nnc(-c4ccc(Cl)cc4)s3)c(=O)c2cc1OC
Outgoing: 8.42

----------
Molecular target: Vascular endothelial growth factor receptor 2 (Homo sapiens)
Assay: Inhibition of VEGFR-2 (unknown origin) kinase activity using poly(Glu-Tyr) at 4:1 ratio as substrate in presence of ATP incubated for 60 mins by ELISA
Value Type: pIC50
The scale used: pIC50 is minus the common logarithm of the concentration in molar units.

Incoming: State the recorded pIC50 for this entry: NC(=O)CCn1cc(-c2ccc3ncnc(Nc4cc(O)c(F)cc4F)c3c2)nn1
Outgoing: 8.15

----------
Molecular target: Angiopoietin-1 receptor (Homo sapiens, UniProt Q02763)
Sequence (Q02763 whole entry): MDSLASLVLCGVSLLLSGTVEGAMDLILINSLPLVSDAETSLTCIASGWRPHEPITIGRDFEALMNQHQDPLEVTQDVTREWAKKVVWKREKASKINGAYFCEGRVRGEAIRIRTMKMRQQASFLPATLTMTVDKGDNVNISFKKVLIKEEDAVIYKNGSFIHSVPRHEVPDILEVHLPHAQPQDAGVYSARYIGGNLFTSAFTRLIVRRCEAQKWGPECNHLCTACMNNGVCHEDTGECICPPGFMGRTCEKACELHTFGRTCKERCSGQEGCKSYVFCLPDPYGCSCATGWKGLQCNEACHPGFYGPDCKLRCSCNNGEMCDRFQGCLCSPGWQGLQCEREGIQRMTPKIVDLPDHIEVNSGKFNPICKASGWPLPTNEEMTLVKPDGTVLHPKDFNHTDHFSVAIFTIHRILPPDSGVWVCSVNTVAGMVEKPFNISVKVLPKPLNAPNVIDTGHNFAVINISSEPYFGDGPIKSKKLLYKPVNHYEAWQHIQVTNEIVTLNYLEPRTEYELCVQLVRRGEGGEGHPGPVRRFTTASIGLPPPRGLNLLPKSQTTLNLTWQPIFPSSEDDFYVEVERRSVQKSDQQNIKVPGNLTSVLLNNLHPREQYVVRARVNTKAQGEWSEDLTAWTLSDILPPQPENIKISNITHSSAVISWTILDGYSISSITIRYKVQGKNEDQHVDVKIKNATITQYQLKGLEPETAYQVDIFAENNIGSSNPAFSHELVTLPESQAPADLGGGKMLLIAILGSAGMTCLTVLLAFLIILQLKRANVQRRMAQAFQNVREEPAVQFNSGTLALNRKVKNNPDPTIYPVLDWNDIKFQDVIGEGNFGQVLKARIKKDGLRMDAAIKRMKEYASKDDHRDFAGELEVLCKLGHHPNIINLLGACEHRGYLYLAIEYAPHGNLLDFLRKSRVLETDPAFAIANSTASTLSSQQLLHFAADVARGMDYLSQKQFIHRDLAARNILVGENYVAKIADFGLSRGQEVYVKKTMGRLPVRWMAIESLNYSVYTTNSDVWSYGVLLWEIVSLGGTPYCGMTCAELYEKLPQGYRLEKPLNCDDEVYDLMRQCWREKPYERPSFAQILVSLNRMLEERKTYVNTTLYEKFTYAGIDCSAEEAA
Value Type: pIC50
The scale used: pIC50 is minus the common logarithm of the concentration in molar units.

Incoming: Request: pIC50, test system Angiopoietin-1 receptor (Homo sapiens, UniProt Q02763), entry O=C(Nc1ccc(-c2ccc3c(=O)[nH]cnc3c2)cc1)Nc1ccc(F)c(F)c1
Outgoing: 5.05

----------
Molecular target: Vascular endothelial growth factor receptor 2 (Homo sapiens)
Experiment: Inhibition of VEGFR-2 (unknown origin) using poly-Glu-Ala-Tyr-biotin as substrate pre-incubated for 10 mins followed by substrate addition and measured after 30 mins by HTRF method
Value Type: IC50 (µM)
Could you give me the number in µM? Just the number is fine.

Incoming: State the recorded IC50 for this entry: COc1cc2ncnc(Nc3ccncc3C(=O)NCc3cccs3)c2cc1OC
Outgoing: 0.017

----------
Target: Vascular endothelial growth factor receptor 3 (Homo sapiens)
Sequence (P35916 whole entry): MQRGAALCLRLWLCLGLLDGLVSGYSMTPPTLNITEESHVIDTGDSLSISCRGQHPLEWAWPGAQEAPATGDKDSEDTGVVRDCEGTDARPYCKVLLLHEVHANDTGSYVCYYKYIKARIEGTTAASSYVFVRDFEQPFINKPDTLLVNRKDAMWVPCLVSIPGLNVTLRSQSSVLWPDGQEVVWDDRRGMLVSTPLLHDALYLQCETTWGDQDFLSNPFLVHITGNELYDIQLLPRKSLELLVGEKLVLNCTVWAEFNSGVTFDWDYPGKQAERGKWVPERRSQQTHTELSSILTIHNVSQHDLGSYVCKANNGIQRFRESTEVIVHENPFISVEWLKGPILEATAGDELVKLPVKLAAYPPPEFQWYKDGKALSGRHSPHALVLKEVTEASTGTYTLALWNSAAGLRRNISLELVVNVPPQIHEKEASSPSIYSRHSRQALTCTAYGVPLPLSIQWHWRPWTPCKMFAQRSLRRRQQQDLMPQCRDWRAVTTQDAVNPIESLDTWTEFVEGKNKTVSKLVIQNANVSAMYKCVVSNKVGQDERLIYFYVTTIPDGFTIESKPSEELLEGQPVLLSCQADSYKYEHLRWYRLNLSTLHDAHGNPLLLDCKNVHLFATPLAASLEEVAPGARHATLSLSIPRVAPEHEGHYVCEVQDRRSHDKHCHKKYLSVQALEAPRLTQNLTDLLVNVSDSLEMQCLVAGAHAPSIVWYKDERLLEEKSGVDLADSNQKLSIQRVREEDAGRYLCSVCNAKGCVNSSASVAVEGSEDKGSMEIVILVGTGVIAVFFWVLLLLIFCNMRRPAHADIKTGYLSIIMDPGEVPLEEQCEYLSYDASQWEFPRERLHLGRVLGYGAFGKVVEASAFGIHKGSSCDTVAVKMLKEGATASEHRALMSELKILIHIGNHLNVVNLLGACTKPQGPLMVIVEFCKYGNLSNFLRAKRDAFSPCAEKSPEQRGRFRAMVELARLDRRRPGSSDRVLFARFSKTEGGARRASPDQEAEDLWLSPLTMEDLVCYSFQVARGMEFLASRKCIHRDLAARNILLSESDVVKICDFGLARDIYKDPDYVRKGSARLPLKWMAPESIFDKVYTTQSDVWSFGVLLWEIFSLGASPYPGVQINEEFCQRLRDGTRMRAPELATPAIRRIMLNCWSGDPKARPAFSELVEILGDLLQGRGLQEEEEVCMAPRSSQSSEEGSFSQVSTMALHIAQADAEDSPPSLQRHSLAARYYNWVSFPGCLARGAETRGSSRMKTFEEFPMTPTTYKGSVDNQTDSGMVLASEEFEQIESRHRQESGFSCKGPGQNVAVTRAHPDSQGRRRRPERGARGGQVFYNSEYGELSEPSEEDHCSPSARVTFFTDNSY
Value Type: pIC50
The scale used: pIC50 is minus the common logarithm of the concentration in molar units.

Incoming: Request: pIC50, test system Vascular endothelial growth factor receptor 3 (Homo sapiens), entry CCCNC(=O)Nc1ccc(Nc2ncnc3cc(OC)c(OC)cc23)cc1Cl
Outgoing: 6.90

----------
Test system: MCF7
Test: cells
Details: Homo sapiens, MCF7, 48 h
Recorded IC50 by entry
Could you give me the number in nM? Just the number is fine.

{"columns": ["Test Smiles", "Units Symbol", "IC50"],
 "data": [
  ["COc1ccc(Cc2nnc(COc3ncnc4ccccc34)o2)cc1OC", "nM", 350]
]}

# next molecule below
Incoming: State the recorded IC50 for this entry: Cc1ncc([N+](=O)[O-])n1CCOc1ncnc2ccc([N+](=O)[O-])cc12
Outgoing: 1610

Cited source for all entries: ChEMBL document CHEMBL5625175
